These measurements were taken from patent US6465486B1.

Give melting point for every item shown.

Please report the measured melting point for Cl.c1ccc(Cc2c[nH]cn2)nc1 197 to 200 °C

Please report the measured melting point for Brc1cncc(CCc2c[nH]cn2)c1.O=C(O)/C=C/C(=O)O 156 to 158 °C

Please report the measured melting point for Cc1ncccc1Cc1c[nH]cn1.Cl.Cl 236 to 237.5 °C

Please report the measured melting point for Brc1cncc(Cc2c[nH]cn2)c1.O=C(O)/C=C/C(=O)O 139 to 145 °C

Please report the measured melting point for Cc1ncccc1CCc1c[nH]cn1.Cl.Cl 258.5 to 263 °C

====

Target: Alpha-2D Adrenergic Receptor (Rattus norvegicus)
Construct: aliquots of the synaptic membrane fraction, the ligand ^3H-para-aminoclonidine and test drug; from tissue; host or cells: rat brain cortex, synaptic membrane fraction
Sequence (P22909 whole entry): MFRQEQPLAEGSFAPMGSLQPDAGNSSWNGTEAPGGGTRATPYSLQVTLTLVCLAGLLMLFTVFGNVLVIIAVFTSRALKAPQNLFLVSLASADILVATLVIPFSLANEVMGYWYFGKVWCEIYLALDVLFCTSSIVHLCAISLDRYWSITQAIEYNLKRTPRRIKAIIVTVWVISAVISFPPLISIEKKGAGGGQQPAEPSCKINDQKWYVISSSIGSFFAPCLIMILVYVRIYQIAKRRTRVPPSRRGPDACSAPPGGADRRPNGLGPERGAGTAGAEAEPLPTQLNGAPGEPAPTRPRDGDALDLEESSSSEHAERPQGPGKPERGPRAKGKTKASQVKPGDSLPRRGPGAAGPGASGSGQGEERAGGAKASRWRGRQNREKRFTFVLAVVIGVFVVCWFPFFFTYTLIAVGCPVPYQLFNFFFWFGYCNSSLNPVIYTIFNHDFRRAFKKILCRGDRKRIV
Experiment: Alpha-2D Adrenergic Receptor Binding Assay (3H-para-aminoclonidine, rat cortex membranes)
Settings: rat cortex synaptic membranes, ligand 3H-para-aminoclonidine; cells without % sign; read-out: α2D Ki
Measurement type: Ki (nM)
Value expressed in nM; do not type the unit.

Give measured Ki for c1ccc(C(c2ccccn2)c2c[nH]cn2)cc1 (stereo not shown) (Alpha-2D Adrenergic Receptor (Rattus norvegicus)). 1000
